# Subject of test: Neuronal acetylcholine receptor; alpha4/beta2 (Homo sapiens, UniProt P17787+P43681)
# Sequence (P17787 whole entry): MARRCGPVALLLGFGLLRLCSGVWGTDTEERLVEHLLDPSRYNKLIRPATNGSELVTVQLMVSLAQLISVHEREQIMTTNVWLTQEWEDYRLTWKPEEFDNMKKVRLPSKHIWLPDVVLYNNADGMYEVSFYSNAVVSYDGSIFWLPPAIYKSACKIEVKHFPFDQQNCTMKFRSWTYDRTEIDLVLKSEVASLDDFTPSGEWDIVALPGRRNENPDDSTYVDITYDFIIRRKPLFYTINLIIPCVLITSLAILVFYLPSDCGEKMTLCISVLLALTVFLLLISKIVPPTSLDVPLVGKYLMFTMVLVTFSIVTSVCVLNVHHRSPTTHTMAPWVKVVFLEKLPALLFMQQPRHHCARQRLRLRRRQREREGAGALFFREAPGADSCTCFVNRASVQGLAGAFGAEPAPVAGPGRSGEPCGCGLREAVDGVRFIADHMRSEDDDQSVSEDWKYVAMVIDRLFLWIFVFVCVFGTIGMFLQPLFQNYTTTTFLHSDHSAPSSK
# Sequence (P43681 whole entry): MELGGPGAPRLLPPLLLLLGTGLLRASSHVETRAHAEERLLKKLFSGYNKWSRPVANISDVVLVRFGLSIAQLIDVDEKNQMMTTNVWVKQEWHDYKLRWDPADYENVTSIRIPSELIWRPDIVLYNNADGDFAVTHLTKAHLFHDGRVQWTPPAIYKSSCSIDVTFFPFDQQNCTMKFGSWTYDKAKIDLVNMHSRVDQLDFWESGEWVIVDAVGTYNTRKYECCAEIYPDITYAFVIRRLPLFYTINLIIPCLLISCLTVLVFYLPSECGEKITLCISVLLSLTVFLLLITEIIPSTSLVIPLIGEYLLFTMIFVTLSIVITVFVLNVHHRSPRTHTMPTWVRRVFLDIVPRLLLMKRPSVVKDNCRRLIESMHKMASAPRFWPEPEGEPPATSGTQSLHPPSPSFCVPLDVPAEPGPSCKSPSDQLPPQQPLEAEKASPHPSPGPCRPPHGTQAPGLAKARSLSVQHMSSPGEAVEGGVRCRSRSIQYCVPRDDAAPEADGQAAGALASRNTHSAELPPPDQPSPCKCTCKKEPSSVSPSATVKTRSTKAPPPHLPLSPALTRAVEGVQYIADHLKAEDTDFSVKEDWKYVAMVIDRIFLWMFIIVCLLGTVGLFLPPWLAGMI
# Measurement description: Antagonist activity at human alpha4beta2 nAChR expressed in HEK tsA201 cells assessed as inhibition of epibatidine-induced intracellular calcium accumulation after 1 hr by fluorescence assay
Reported metric: IC50 (µM)

P = Cc1cccc(NC(=O)c2cc(N)ccc2N2CCCCC2)n1
Q = O=C(CN1CCN(S(=O)(=O)c2ccc(F)cc2)CC1)Nc1ccccc1F
R = C=CCN1C(=O)[C@](O)(CC(=O)c2ccco2)c2cc(Cl)ccc21
S = O=C(O)c1cc(NCc2cccs2)ccc1N1CCOCC1
// ascending sort on recorded IC50 Provide the ranking by listing each label in its place in the requested order.
R, Q, P, S

Origin of values: ChEMBL document CHEMBL2021888
